Target: T1, human IL-22 (human, UniProt Q9GZX6 34-179)
T1 sequence: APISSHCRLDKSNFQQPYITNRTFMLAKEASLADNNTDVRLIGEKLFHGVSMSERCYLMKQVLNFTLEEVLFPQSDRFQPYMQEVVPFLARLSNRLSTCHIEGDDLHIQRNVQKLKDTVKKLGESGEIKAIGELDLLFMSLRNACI
Experiment: cell-based or functional assay
Assay endpoint: IC50 of IgG (pM) in BaF3-IL-22 proliferation assay
Give just the numeric value; pM need not be written.

These recorded examples may help you get a feel for the data.
Binder	Experimental value
356A11 IgG (germlined; Tables 6 and 9) (antibody, V domains shown) VH: QVQLVQSGAEVKKPGASVKVSCKASGYTFTNYYMHWVRQAPGQGLEWVGWINPYTGSAFYAQKFRGRVTMTRDTSISTAYMELSRLRSDDTAVYYCAREPEKFDSDDSDVWGRGTLVTVSS VL: QAVLTQPPSVSGAPGQRVTISCTGSSSNIGAGYGVHWYQQLPGTAPKLLIYGDSNRPSGVPDRFSGSKSGTSASLAITGLQAEDEADYYCQSYDNSLSGYVFGGGTQLTVLG	53
355E04 IgG (germlined) (antibody, V domains shown) VH: QVQLVQSGAEVKKPGASVKVSCKASGYTFTHYYMHWVRQAPGQGLEWVGWINPYTGGAFYAQKFQGRVTMTRDTSISTAYMELSRLRSDDTAVYYCAREPEKFDSPNAEIWGRGTLVTVSS VL: QAVLTQPPSVSGAPGQRVTISCTGSSSNIGAGYGVHWYQQLPGTAPKLLIYGNSNRPSGVPDRFSGSKSGTSASLAITGLQAEDEADYYCQSYDSSLSGYVFGGGTQLTVLG	100

Now, please, on to the next binder.
Entry 368D04 IgG (non-germlined) (antibody, V domains shown) VH: EVQLVESGGGVVRPGGSLRLSCAASGFTFDDYGMNWVRQAPGKGLEWVSGVNWNGGTRDYAASVKGRFTISRDNAKNSLYLQMNSLRAEDTALYYCARGWYSGAAWNMGYWGRGTLVTVSS VL: QAVLTQPSSVSGSPGQSITISCTGASGDVGAYNFVSWYQQHPGKTPKLIIYDVNKRPSGVSNRFSGSKSGNTASLTISGLQAEDESDYYCASLVSDFSVVFGGGTKVTVLG : reported IC50 of IgG (pM) in BaF3-IL-22 proliferation assay = ? 127
